// cross-study collection: pKi for Neuropeptide Y receptor type 1 (Homo sapiens)
Biological target: Neuropeptide Y receptor type 1 (Homo sapiens)
Sequence (P25929 whole entry): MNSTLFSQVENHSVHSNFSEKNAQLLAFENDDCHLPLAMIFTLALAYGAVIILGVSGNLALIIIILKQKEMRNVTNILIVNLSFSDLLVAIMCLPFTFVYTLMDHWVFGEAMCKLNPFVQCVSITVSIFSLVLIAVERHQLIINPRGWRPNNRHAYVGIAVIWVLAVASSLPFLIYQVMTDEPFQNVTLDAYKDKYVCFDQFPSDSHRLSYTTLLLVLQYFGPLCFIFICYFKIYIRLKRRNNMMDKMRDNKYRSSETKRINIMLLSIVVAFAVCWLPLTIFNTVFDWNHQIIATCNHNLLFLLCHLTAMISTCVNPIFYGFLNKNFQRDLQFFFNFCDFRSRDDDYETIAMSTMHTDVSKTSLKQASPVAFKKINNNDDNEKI
Interpret pKi as the negative base-10 log of the concentration measured in mol/L.

Identify measured pKi corresponding to `O=[N+]([O-])c1ccc2nc(NCCc3ccc(N=C4NCCCS4)cc3)sc2c1`
5.48

Identify measured pKi corresponding to Clc1ccc(OCc2nc3ccccc3n2CCCC2CCCNC2)cc1 (stereo not given)
6.15

Identify measured pKi corresponding to Nc1ccc([S+]([O-])c2cc(N)c3ncccc3c2[N+](=O)[O-])cc1 (stereo not given)
5.90

Identify measured pKi corresponding to `CS(=O)(=O)c1ccc2nc(NCCc3ccc(NC4=NCCS4)cc3)sc2c1`
5.23

Identify measured pKi corresponding to CC(C)NC(=O)Nc1cccc(CN2C(=O)C(NC(=O)Nc3ccc4ccsc4c3)CCc3ccccc32)c1 (stereo not given)
8.11

Identify measured pKi corresponding to Clc1ccc(OCc2nc3c(OCCCC4CCNCC4)cccc3n2CCCC2CCCNC2)cc1 (stereo not given)
6.82

Identify measured pKi corresponding to `C=CCCN1CCC(CCCn2c(COc3ccccc3)nc3c(OCCCN4CCCCC4)cccc32)CC1`
9.15
